target of assay: CXCR3 (Homo sapiens, UniProt P49682)
Construct: expressed in transfected cells; host or cells: HEK293 / HEK293T cells, stably transfected; membrane preparations
Sequence (P49682 1-368): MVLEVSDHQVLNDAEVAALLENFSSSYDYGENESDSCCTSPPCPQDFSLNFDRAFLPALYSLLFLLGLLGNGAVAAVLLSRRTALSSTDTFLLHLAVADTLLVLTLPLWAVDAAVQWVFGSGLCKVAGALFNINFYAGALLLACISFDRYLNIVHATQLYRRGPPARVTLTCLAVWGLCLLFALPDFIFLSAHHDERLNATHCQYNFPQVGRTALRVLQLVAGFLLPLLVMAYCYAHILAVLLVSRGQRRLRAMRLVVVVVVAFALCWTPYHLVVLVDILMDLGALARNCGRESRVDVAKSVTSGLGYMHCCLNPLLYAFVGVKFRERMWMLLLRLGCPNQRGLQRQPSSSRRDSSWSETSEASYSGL
experiment: [35S]GTPγS incorporation assay
Assay type: biochemical
measurement setup: membrane preparations of HEK293T stably expressing CXCR3; mean of three experiments in triplicate
Record form. Attribute: CXCR3 pEC50 ± SEM. Fill in for each entry.
Answer with a number only.

Exam item: Give reported CXCR3 pEC50 ± SEM value for N[C@H](CCCCNC(=O)[C@@H]1Cc2ccccc2CN1C(=O)CCC(=O)c1ccccc1)C(=O)NCC(c1ccccc1)c1ccccc1.O=C(O)C(F)(F)F [Compound 35]
Marked response: 8.01

Exam item: Check the records and state CXCR3 pEC50 ± SEM for NCCCC[C@@H](NC(=O)[C@@H]1Cc2ccccc2CN1C(=O)CCC(=O)c1ccccc1)C(=O)NCC(c1ccccc1)c1ccccc1.O=C(O)C(F)(F)F [Compound 47]
Marked response: 5.94

Exam item: For the compound CC(C)(C)OC(=O)NCCCC[C@@H](NC(=O)[C@@H]1Cc2ccccc2CN1C(=O)CCC(=O)c1ccccc1)C(=O)NCC(c1ccccc1)c1ccccc1 [Compound 45] , report CXCR3 pEC50 ± SEM.
Marked response: 5.97

Exam item: Given CC(C)(C)OC(=O)N[C@@H](CCCCNC(=O)[C@@H]1Cc2ccccc2CN1C(=O)CCc1ccccc1)C(=O)NCC(c1ccccc1)c1ccccc1 [Compound 23] , respond with its CXCR3 pEC50 ± SEM.
Marked response: 5.07

Exam item: Output measured CXCR3 pEC50 ± SEM for this item: COc1ccc(C(=O)CCC(=O)N2Cc3ccccc3C[C@H]2C(=O)NCCCC[C@H](NC(=O)OC(C)(C)C)C(=O)NCC(c2ccccc2)c2ccccc2)cc1OC [Compound 21]
Marked response: 7.30

Exam item: Identify measured CXCR3 pEC50 ± SEM associated with CC(C)(C)OC(=O)N[C@@H](CCCCNC(=O)[C@@H]1Cc2ccccc2CN1C(=O)CCCc1ccccc1)C(=O)NCC(c1ccccc1)c1ccccc1 [Compound 22]
Marked response: 5.07
